tested on: CYP3A5 (Homo sapiens); experiment: Activity of human recombinant CYP3A5 assessed as ((3R,4S,5S,6R)-4-((2R,3R)-3-(((R)-3,3-dimethyloxiran-2-yl)methyl)-2-methyloxiran-2-yl)-5-methoxy-1-oxaspiro[2.5]octan-6-yl ((R)-1-amino-3-methyl-1-oxobutan-2-yl)carbamate) formation; conditions: recombinant enzyme
property_name: Km (µM)
Express your answer in µM, writing the number without its unit.

Reported Km for CO[C@@H]1[C@H](OC(=O)N[C@@H](C(N)=O)C(C)C)CC[C@]2(CO2)[C@H]1[C@@]1(C)O[C@@H]1CC=C(C)C was 17

====

test system: Liver microsome; experiment: Retention time in human liver microsomes treated with at 5 mM PPI-2458 by LC/MS analysis; assay type: ADME; conditions: 5000 µM
property_name: Retention_time (min)
Express your answer in min, writing the number without its unit.

Reported Retention_time for CO[C@@H]1[C@H](OC(=O)N[C@@H](C(N)=O)C(C)C)CC[C@]2(CO2)[C@H]1[C@@]1(C)O[C@@H]1C[C@@H]1OC1(C)C was 20.1

Reported Retention_time for CO[C@@H]1[C@H](OC(=O)N[C@@H](C(N)=O)C(C)(C)O)CC[C@]2(CO2)[C@H]1[C@@]1(C)O[C@@H]1CC=C(C)C was 26.7

Reported Retention_time for CO[C@@H]1[C@H](OC(=O)N[C@@H](C(N)=O)C(C)C)CC[C@]2(CO2)[C@H]1[C@@]1(C)O[C@@H]1C[C@H]1OC1(C)C was 20.8

Reported Retention_time for CO[C@@H]1[C@H](OC(=O)N[C@@H](C(N)=O)C(C)C)CC[C@]2(CO2)[C@H]1[C@@]1(C)O[C@@H]1C/C=C(\C)CO was 17.6
